Field: XI50. Provide a value for each of the compounds that follow.
- Measured On: Pancreatic triacylglycerol lipase (Sus scrofa)
- Assay Details: Inhibition of porcine pancreatic lipase using tributyrin as substrate preincubated for 30 mins measured at 1 min time interval for 5 mins in presence of NaTDC in reaction mixture by pH-Stat method
// response body must contain only the number

## Task # value lookup — system Pancreatic triacylglycerol lipase (Sus scrofa), readout XI50, item "COc1cc(NC(=O)C(=O)c2ccc3[nH]c4ccccc4c3c2)cc(OC)c1OC"
## Result 26.2

## Task Could you do the same for "COc1ccc(NC(=O)C(=O)c2ccc3c(c2)c2ccccc2n3Cc2ccc(Cl)cc2)cc1OC" , please?
## Result 21.9

## Task Could you do the same for "COc1cc(NC(=O)C(=O)c2ccc3c(c2)c2ccccc2n3Cc2ccc(Cl)cc2)cc(OC)c1OC" , please?
## Result 21.9

## Task Could you do the same for "CCCCCCCCCCC[C@@H](C[C@@H]1OC(=O)[C@H]1CCCCCC)OC(=O)[C@H](CC(C)C)NC=O" , please?
## Result 3.14
